# System: Pseudomonas aeruginosa
# PROTOCOL: Antimicrobial activity against Pseudomonas aeruginosa after 24 hrs by broth dilution test
# Type: functional
MEASURED_METRIC: MIC (µg/mL)
Express it in µg/mL; write the number only.

Examples from the recorded data:
INSERT INTO measurements (smiles_notation, target, result_units, result_value) VALUES
  ('O=C(N[C@H](CO)[C@H](O)c1ccc([N+](=O)[O-])cc1)C(Cl)Cl', 'Pseudomonas aeruginosa', 'µg/mL', 6.25),
  ('O=C(NS(=O)(=O)/C=C/c1ccc([N+](=O)[O-])cc1)c1ccc(Cl)s1', 'Pseudomonas aeruginosa', 'µg/mL', 25),
  ('O=C(NS(=O)(=O)c1c(-c2ccccc2)noc1-c1ccc([N+](=O)[O-])cc1)c1ccc(Cl)s1', 'Pseudomonas aeruginosa', 'µg/mL', 12.5),
  ('O=C(NS(=O)(=O)/C=C/c1ccc([N+](=O)[O-])cc1)c1cccs1', 'Pseudomonas aeruginosa', 'µg/mL', 25),
  ('O=C(NS(=O)(=O)c1c(-c2ccccc2)noc1-c1ccc([N+](=O)[O-])cc1)c1cccs1', 'Pseudomonas aeruginosa', 'µg/mL', 12.5),
  ('O=C(NS(=O)(=O)c1c(-c2ccccc2)nn(-c2ccccc2)c1-c1ccc([N+](=O)[O-])cc1)c1cccs1', 'Pseudomonas aeruginosa', 'µg/mL', 25);

In the following, a different molecule is considered.
Missing value: MIC, Pseudomonas aeruginosa, entry O=C(NS(=O)(=O)c1c(-c2ccccc2)nn(-c2ccccc2)c1-c1ccc([N+](=O)[O-])cc1)c1ccc(Cl)s1 . Fill in? 12.5
